FYI, the data here is from patent US8293770B2.

- TARGET: recombinant human NK3 receptor (Homo sapiens, UniProt P29371)
- Sequence (P29371 whole entry): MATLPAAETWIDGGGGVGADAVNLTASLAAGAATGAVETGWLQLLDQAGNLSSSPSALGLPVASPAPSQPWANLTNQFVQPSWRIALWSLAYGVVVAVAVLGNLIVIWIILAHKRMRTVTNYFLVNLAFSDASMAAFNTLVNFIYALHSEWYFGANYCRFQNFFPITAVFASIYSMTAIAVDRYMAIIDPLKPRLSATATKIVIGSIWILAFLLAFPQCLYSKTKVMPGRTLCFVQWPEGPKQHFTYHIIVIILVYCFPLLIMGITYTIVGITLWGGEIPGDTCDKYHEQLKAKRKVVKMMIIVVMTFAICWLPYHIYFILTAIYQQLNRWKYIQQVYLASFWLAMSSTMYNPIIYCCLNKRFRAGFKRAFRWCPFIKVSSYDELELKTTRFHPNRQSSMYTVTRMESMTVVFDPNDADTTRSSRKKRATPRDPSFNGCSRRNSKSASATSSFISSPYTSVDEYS
- METHOD SUMMARY: [3H]SR142801 competition binding assay
- CONDITION PARAMETERS: hNK3 receptor binding, [3H]SR142801, membranes from HEK293 cells transiently expressing recombinant human NK3 receptor
Recorded Ki for the following compounds
Please give a number only; it is taken to be in nM.

Completed entries (count: 5):
CN(Cc1ccc(C(F)(F)F)c(F)c1)[C@H]1CN(C(=O)c2ccc3c(c2)OCO3)C[C@@H]1c1ccc(Cl)c(Cl)c1 (racemic) [Example 17]; 38.3
Cc1cc(C(=O)N2C[C@H](c3ccc(Cl)c(Cl)c3)[C@@H](N(C)Cc3ccc(C(F)(F)F)c(F)c3)C2)ccc1C#N (racemic) [Example 23]; 6.6
CN(Cc1ccc(C(F)(F)F)c(F)c1)[C@H]1CN(C(=O)c2ccc(-c3ccncc3)cc2)C[C@@H]1c1ccc(Cl)c(Cl)c1 (racemic) [Example 45]; 2.5
CN(Cc1ccc(C(F)(F)F)c(F)c1)[C@H]1CN(C(=O)c2ccc(C#N)cc2)C[C@@H]1c1ccc(Cl)c(Cl)c1 (racemic) [Example 6]; 20.9
COc1ncc(C(=O)N2C[C@H](c3ccc(Cl)c(Cl)c3)[C@@H](N(C)Cc3ccc(C(F)(F)F)c(F)c3)C2)cn1 (racemic) [Example 57]; 22.3

Now look at this one.
QUERY: Any idea what its Ki is? The compound is CN(Cc1ccc(C(F)(F)F)c(F)c1)[C@H]1CN(C(=O)c2ccc(-c3ccccn3)cc2)C[C@@H]1c1ccc(Cl)c(Cl)c1 (racemic) [Example 43]
RESULT: 5.1
